Each recorded value in this set is attributed to the supplement of paper PMC6555819.

Test system: VDR:RXRa (NR concentration 270 nM, RXRa partner concentration 90 nM)
Measurement notes: PBM binding z-score (relative to random genomic background probes); higher = stronger binding; sequences stand for … in GC…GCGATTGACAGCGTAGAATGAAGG
Class assignment keyed on PBM binding z-score, ranges I = under 3, II = from 3 up to 5, III = 5 and over

Band of `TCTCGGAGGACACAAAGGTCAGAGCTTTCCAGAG` ?
II

Band assignment needed for `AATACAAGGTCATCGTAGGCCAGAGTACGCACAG` please.
III

Would you mind sorting `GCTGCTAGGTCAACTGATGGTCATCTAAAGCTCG` into the appropriate category?
I

Kindly identify the class of `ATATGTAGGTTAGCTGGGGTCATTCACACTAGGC` .
III

Classify this sequence: `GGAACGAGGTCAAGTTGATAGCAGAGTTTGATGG`
III

// return the class label for `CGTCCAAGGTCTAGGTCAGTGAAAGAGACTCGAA`
I

Lab log: `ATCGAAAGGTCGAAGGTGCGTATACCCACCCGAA` — assign PBM binding z-score category
I

Please let me know in which category the item `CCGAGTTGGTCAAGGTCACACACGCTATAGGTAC` belongs.
II

Could you tell me which band `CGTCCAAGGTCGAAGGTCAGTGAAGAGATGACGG` belongs to?
II

Entry `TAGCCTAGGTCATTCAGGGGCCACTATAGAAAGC` belongs to which category?
II

Form: Item = `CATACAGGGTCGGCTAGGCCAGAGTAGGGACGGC` ; Class = ?
I

----------
For each entry below, report its PBM binding z-score value.
Test system: PPARg:RXRa 90nM:30nM, anti-RXR (NR concentration 90 nM, RXRa partner concentration 30 nM)
Measurement notes: PBM binding z-score (relative to random genomic background probes); higher = stronger binding; sequences stand for … in GC…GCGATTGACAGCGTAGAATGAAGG
Keep it simple and answer with nothing but the number.

Specify PBM binding z-score for `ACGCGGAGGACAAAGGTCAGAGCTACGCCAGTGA` and stop.
6.15

Using the record for `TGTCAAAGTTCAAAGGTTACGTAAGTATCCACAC` , state its measured PBM binding z-score.
8.13

Entry `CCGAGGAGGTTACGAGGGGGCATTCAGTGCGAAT` needs its PBM binding z-score filled in; supply it.
2.45

For the sequence `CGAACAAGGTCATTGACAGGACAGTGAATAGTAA` , give its reported PBM binding z-score.
4.75

Please indicate PBM binding z-score recorded for `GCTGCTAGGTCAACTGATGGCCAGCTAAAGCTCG`
2.13

// Input: `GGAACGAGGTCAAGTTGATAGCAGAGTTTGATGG` . Output its PBM binding z-score only.
6.52

----------
Test system: RARb homodimer (NR concentration 270 nM)
Measurement notes: PBM binding z-score (relative to random genomic background probes); higher = stronger binding; sequences stand for … in GC…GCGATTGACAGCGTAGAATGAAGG
Hi there, I'd appreciate the recorded PBM binding z-score for every entry that follows.
Lab note: record just the number, no unit beside it.

Consider the sequence `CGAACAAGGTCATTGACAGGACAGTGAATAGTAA` . State its measured PBM binding z-score.
3.92

Output measured PBM binding z-score for this item: `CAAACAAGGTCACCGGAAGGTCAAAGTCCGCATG`
5.88

Supply reported PBM binding z-score belonging to this sequence: `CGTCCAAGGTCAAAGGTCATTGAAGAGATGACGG`
5.63

For the sequence `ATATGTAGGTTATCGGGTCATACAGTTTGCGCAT` , give its reported PBM binding z-score.
3.17

Indicate the recorded PBM binding z-score value for this sequence: `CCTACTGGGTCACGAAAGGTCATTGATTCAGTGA`
5.9

# return recorded PBM binding z-score for input `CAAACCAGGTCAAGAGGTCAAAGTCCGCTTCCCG`
5.59

Give PBM binding z-score for the following sequence: `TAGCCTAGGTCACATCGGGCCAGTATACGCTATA`
2.63

Tell me measured PBM binding z-score for `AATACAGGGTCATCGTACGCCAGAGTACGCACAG` please.
3.46

Specify PBM binding z-score for `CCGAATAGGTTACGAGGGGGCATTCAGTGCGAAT` and stop.
2.69

Give recorded PBM binding z-score. `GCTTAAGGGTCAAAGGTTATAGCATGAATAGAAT`
4.32

Let me know recorded PBM binding z-score for `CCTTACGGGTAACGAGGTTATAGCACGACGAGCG` , thanks.
0.484

Identify the reported PBM binding z-score for the following entry. `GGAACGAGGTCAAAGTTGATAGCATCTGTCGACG`
4.02

Give recorded PBM binding z-score. `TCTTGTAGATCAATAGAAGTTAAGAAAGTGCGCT`
-0.511

Using the record for `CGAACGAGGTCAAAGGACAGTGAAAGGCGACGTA` , state its measured PBM binding z-score.
3.88

Give the reported value of PBM binding z-score for this record: `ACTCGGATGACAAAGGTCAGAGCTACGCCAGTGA`
3.9

Specify measured PBM binding z-score for `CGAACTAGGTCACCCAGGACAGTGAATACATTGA` .
3.34

Please supply the value of reported PBM binding z-score for the item `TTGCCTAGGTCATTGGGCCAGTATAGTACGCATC`
2.92

Entry `CCTTAGGGGTCAAGGTTATAGCACGGGTGGTACG` needs its PBM binding z-score filled in; supply it.
5.11

In one line, give reported PBM binding z-score of the entry `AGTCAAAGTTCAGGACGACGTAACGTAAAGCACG` .
2.77

Consider the sequence `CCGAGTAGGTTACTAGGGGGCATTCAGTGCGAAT` and give its recorded PBM binding z-score.
2.16

For the sequence `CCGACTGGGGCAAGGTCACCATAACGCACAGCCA` , report PBM binding z-score.
4.23

Answer with the recorded PBM binding z-score for the sequence listed here: `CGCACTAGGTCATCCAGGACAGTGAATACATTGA`
3.11

----------
Test system: RXRa DBDmut IVT, anti-RXR (DBD mutation: RXRa K156A/R161A, NR concentration 90 nM)
Measurement notes: PBM binding z-score (relative to random genomic background probes); higher = stronger binding; sequences stand for … in GC…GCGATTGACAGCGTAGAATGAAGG
Outcome: True for PBM binding z-score of at least 3; False for anything lower.

Hi, just wondering whether `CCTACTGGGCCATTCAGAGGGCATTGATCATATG` shows PBM binding z-score of 3 or higher.
False

Reported PBM binding z-score at or above 3? `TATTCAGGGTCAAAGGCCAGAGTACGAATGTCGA`
True

Textbook exercise: given the entry `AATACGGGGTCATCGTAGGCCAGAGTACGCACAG` , state whether its PBM binding z-score is greater than or equal to 3.
True

Say whether `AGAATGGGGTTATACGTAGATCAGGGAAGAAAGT` shows PBM binding z-score of 3 or more.
False

Decide: PBM binding z-score of `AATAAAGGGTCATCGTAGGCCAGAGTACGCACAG` >= 3?
True

Please indicate if the recorded PBM binding z-score for `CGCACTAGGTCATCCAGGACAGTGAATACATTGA` meets or exceeds 3.
False

Confirm if PBM binding z-score reported for the sequence `CGTCCAAGGTCACAGAGGTCAGTGAATGCCGAGT` is 3 or above.
True

Can `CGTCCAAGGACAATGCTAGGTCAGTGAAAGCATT` be said to have PBM binding z-score at or above 3?
False

Check if PBM binding z-score >= 3 (inclusive). Item: `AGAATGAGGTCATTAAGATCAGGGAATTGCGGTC`
True

Threshold query (PBM binding z-score >= 3) on `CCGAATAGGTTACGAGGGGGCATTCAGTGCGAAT`
False

Form field: PBM binding z-score at least 3? Entry: `TATACAGGGTCAAAGGTCAGAGTACGAATGTCGA`
True

Record `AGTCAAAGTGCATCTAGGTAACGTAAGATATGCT` ; criterion: PBM binding z-score no lower than 3. Met?
False

Confirm if PBM binding z-score reported for the sequence `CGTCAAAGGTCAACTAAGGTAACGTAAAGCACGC` is 3 or above.
True

Answer whether PBM binding z-score of `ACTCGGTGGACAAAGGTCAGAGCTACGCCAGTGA` is greater than or equal to 3.
False

Decide: PBM binding z-score of `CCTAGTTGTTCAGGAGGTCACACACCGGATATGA` >= 3?
False

Record `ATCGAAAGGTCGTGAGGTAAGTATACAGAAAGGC` ; criterion: PBM binding z-score no lower than 3. Met?
False

Item `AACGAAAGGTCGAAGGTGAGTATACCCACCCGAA` with PBM binding z-score of 3 or above?
False

Does the reported PBM binding z-score for `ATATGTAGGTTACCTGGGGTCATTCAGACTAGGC` fall at or above the 3 mark?
False

State whether the measured PBM binding z-score reaches 3, counting equality as reaching it, for `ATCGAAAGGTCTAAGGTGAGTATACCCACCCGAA`
False

# check: PBM binding z-score of `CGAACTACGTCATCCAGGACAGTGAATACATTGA` is greater than or equal to 3
False
